This collection of values is drawn from patent US11485731B2.

System tested: human PRMT5/MEP50 (Homo sapiens (Human), UniProt O14744)
Sequence (O14744 whole entry): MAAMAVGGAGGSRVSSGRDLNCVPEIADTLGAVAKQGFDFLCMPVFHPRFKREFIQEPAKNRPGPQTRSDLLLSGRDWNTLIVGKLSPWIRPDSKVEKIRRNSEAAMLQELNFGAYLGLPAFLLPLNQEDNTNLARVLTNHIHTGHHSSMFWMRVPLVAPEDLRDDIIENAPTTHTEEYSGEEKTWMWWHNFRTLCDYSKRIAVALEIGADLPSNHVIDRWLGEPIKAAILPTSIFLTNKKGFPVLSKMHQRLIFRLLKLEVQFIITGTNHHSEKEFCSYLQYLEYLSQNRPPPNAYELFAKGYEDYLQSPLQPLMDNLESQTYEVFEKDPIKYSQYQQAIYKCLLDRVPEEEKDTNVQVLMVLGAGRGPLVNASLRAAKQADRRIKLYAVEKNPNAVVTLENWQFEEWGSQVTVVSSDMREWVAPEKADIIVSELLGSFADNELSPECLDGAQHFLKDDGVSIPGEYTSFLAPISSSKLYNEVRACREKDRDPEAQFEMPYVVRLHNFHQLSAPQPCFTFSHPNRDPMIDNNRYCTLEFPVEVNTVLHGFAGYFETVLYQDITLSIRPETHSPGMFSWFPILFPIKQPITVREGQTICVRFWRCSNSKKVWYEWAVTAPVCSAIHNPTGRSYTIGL
Sequence (Q9BQA1 whole entry partner): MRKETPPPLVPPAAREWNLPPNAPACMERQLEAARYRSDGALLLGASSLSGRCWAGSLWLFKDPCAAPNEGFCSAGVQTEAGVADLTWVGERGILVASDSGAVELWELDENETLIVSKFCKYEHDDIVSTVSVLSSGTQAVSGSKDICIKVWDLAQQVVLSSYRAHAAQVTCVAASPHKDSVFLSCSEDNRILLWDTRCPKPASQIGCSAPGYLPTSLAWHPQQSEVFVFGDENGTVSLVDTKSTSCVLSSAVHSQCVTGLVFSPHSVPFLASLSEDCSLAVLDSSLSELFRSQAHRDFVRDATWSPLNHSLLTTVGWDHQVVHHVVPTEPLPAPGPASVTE
Test description: PRMT5 chemiluminescent assay
Condition info: human PRMT5/MEP50 expressed in HEK293 cells; biotinylated histone peptides; Histone H4 monomethyl R3 antibody; chemiluminescent readout
pIC50: −log10 of the molar value.
Returns true (1) if the recorded pIC50 is greater than or equal to 6, and false (0) otherwise.

# Compound, Label value
data = [
    ("O=C(OCC(O)CN1CCc2ccccc2C1)N1CC[S+]([O-])CC1 (stereo not drawn)", "false (0)"),
    ("O=C(NC[C@H](O)CN1CCc2ccccc2C1)N1CC[C@@H](c2ccccc2)C1", "true (1)"),
    ("O=C(OCC(O)CN1CCc2ccsc2C1)N1CCCc2ccccc21 (stereo not drawn)", "true (1)"),
    ("O=C(OCC(O)CN1CCc2ccccc2C1)N1CCCC(O)C1 (stereo not drawn)", "false (0)"),
    ("O=C(NC[C@H](O)CN1CCc2ccccc2C1)N1CCCC(c2ccccc2)C1 (stereo partly drawn)", "true (1)"),
]

Q. Entry O=C(NCC(O)CN1CCc2ccccc2C1)N1CCCC(Nc2ccncc2)C1 (stereo not drawn) : is its pIC50 no less than 6?
A. true (1)

Q. Hello, I need to know if O=C(NCC(O)CN1CCc2ccccc2C1)N1CCCCCC1 (stereo not drawn) has measured pIC50 not below 6. Thanks!
A. false (0)

Q. Textbook exercise: given the entry O=C(NCC(O)CN1CCc2ccsc2C1)N1CCCC(c2ccccc2)C1 (stereo not drawn) , state whether its pIC50 is greater than or equal to 6.
A. true (1)

Q. Assess whether reported pIC50 for O=C(OCCCN1CCc2ccccc2C1)N1CCC(c2ccccc2)C1 (stereo not drawn) sits at 6 or higher.
A. true (1)

Q. Please indicate if the recorded pIC50 for O=C(NCC(O)CN1CCc2sccc2C1)N1CCCC(c2ccccc2)C1 (stereo not drawn) meets or exceeds 6.
A. true (1)

Q. Test whether the compound COC(=O)N1CCCN(C(=O)OCC(O)CN2CCc3ccccc3C2)CC1 (stereo not drawn) records pIC50 of 6 or higher.
A. false (0)

Q. Hi, just wondering whether O=C(OCC(O)CN1CCc2ccccc2C1)N1CC(C(=O)N2C3CCC2COC3)C1 (stereo not drawn) shows pIC50 of 6 or higher.
A. false (0)

###

System tested: human PRMT5/MEP50 (Homo sapiens (Human))
Test description: PRMT5 chemiluminescent assay
Condition info: human PRMT5/MEP50 expressed in HEK293 cells; biotinylated histone peptides; Histone H4 monomethyl R3 antibody; chemiluminescent readout
Procedure: A PRMT5 chemiluminescent assay was used to measure the IC50 activity of PRMT5 of the compounds of Examples 1A to 7 above. Biotinylated histone peptides were synthesized and attached to 384-well plates. Compound serial dilutions were performed and added to the assay plate. Histone H4 monomethyl R3 antibody was obtained from Abcam. […] The plate was read on a Flourstar Omega BMG Labtech instrument (Ortenberg, Germany) and the analysis of IC50 was performed using the Flourstar Omega BMG Labtech software.
Property measured: IC50 (nM)
Write the number in nM without appending the unit.

# Compound, Measurement units, IC50
data = [
    ("O=C(NCC(O)CN1CCc2sccc2C1)N1CCC(c2ccccc2)C1 (centres unmarked) [Example 1AE]", "nM", 72),
    ("O=C(NC[C@H](O)CN1CCc2ccccc2C1)N1CCc2ccccc2C1 [Example 1AL]", "nM", 30),
    ("CC(=O)N1CCCN(C(=O)NCC(O)CN2CCc3ccccc3C2)CC1 (centres unmarked) [Example 1CM]", "nM", 125),
    ("O=C(NC[C@H](O)CN1CCc2ccccc2C1)N1CC[C@H](c2ccccc2)C1 [Example 1CJ]", "nM", 58),
    ("O=C(NC[C@H](O)CN1CCc2ccccc2C1)N1CCCS(=O)(=O)C(c2ccccc2)C1 (some centres unmarked) [Example 1BO]", "nM", 1820),
]

Note to self: IC50 recorded for O=C(NC[C@H](O)CN1CCc2ccccc2C1)N1CCCC(c2ccccn2)C1 (some centres unmarked) [Example 1BQ] was 48

The compound identified as O=C(NCC(O)CN1CCc2ccccc2C1)N1CCc2ccccc21 (centres unmarked) [Example 2B] registered its IC50 at 8500

So for O=C(NCC(O)CN1CCc2ccccc2C1)N1CCN(Cc2ccccc2)CC1 (centres unmarked) [Example 1D] , the logged IC50 turned out to be 1870

// sample O=C(OC[C@@H](O)CN1CCc2ccccc2C1)N1CCc2ccccc2C1 [Example 4H] , its IC50 was 539

Item: O=C(NC[C@H](O)CN1CCc2ccccc2C1)N1CCC(N2CCCSCC2)C1 (some centres unmarked) [Example 1CF] | IC50: 376

Documented IC50 of O=C(NC[C@@H](O)CN1CCc2ccccc2C1)N1CCC[C@@H](c2ccccc2)C1 [Example 1AI] : 3220
